Assay: Stability in liver microsomes, dog
test-readout: Treprostinil Concentration 60 min (µM)
Give bare numbers, in µM.

molecule	Treprostinil Concentration 60 min / µM
CCCCCC(CCC1C(O)CC2Cc3c(cccc3OCC(=O)O)CC21)OC(=O)CC (stereo not shown) [Prodrug LV]	0.915

# batch size: 3; output Treprostinil Concentration 60 min per entry
1. CCCCCC(CCC1C(OC(=O)CC)CC2Cc3c(cccc3OCC(=O)O)CC21)OC(=O)CC (stereo not shown) [Prodrug LXX, treprostinil dipropionate]
2. CCCCCC(CCC1C(O)CC2Cc3c(cccc3OCC(=O)O)CC21)OP(=O)(O)O (stereo not shown) [Prodrug VI]
3. CCCCCC(CCC1C(O)CC2Cc3c(cccc3OCC(=O)O)CC21)OC(C)=O (stereo not shown) [Prodrug XLIII]

1.23
0.48
0.932

###

What Treprostinil Concentration 0 min was measured for each of the following?
Assay: Stability in cryopreserved hepatocytes, rat
One number for each entry, in µM.

compound	Treprostinil Concentration 0 min, µM
CCCCCC(CCC1C(O)CC2Cc3c(cccc3OCC(=O)O)CC21)OC(=O)CC (stereo not shown) [Prodrug LV]	0.0159
CCCCCC(CCC1C(OC(=O)CC)CC2Cc3c(cccc3OCC(=O)O)CC21)OC(=O)CC (stereo not shown) [Prodrug LXX, treprostinil dipropionate]	0
CCCCCC(CCC1C(O)CC2Cc3c(cccc3OCC(=O)O)CC21)OC(C)=O (stereo not shown) [Prodrug XLIII]	0.00292

Now look at this one.
Record summary for CCCCCC(CCC1C(O)CC2Cc3c(cccc3OCC(=O)O)CC21)OP(=O)(O)O (stereo not shown) [Prodrug VI] : reported Treprostinil Concentration 0 min = 0.128

###

Experiment: Stability in cryopreserved hepatocytes, dog
Hi! Just check whether Trep Concentration (μM) 15 min is below 0.005 µM. Below gives fulfilled, equal or above gives not fulfilled.

For orientation, consider the following solved cases.
molecule	class-label
CCCCCC(CCC1C(O)CC2Cc3c(cccc3OCC(=O)O)CC21)OCC(=O)O (stereo not shown)	fulfilled
CCCCCC(CCC1C(O)CC2Cc3c(cccc3OCC(=O)O)CC21)OC(=O)c1ccc(O)c(O)c1 (stereo not shown)	fulfilled
CCCCCC(CCC1C(O)CC2Cc3c(cccc3OCC(=O)O)CC21)OCCN1CCOCC1 (stereo not shown)	fulfilled
CCCCCC(CCC1C(O)CC2Cc3c(cccc3OCC(=O)O)CC21)OCc1oc(=O)oc1C (stereo not shown)	not fulfilled
CCCCCC(CCC1C(O)CC2Cc3c(cccc3OCC(=O)O)CC21)OC(=O)COc1ccccc1 (stereo not shown)	not fulfilled

# TODO verify Trep Concentration (μM) 15 min < 0.005 µM strictly for this molecule: CCCCCC(CCC1C(O)CC2Cc3c(cccc3OCC(=O)O)CC21)OC(=O)c1ccc(C)cc1 (stereo not shown)
not fulfilled

Please let me know if CCCCCC(CCC1C(O)CC2Cc3c(cccc3OCC(=O)O)CC21)OC(=O)CO (stereo not shown) shows Trep Concentration (μM) 15 min below 0.005 µM.
not fulfilled

A record lists CCCCCC(CCC1C(O)CC2Cc3c(cccc3OCC(=O)O)CC21)OC(=O)c1ccc(O)cc1 (stereo not shown) . Is its Trep Concentration (μM) 15 min below 0.005 µM?
not fulfilled

In the record for CCCCCC(CCC1C(O)CC2Cc3c(cccc3OCC(=O)O)CC21)OC(=O)C(C)(C)C (stereo not shown) , is Trep Concentration (μM) 15 min less than 0.005 µM?
not fulfilled

Decide: Trep Concentration (μM) 15 min of CCCCCC(CCC1C(O)CC2Cc3c(cccc3OCC(=O)O)CC21)OC(=O)NCCO (stereo not shown) strictly below 0.005 µM?
fulfilled

Trep Concentration (μM) 15 min strictly < 0.005 µM for this molecule? CCCCCC(CCC1C(O)CC2Cc3c(cccc3OCC(=O)O)CC21)OC(=O)CCC(=O)O (stereo not shown)
not fulfilled

hey, is Trep Concentration (μM) 15 min for CCCCCC1CCC2C(CC3Cc4c(cccc4OCC(=O)O)CC32)OP(=O)(Oc2ccccc2)O1 (mixture of isomers) lower than 0.005 µM or not?
fulfilled

# strict comparison: is reported Trep Concentration (μM) 15 min < 0.005 µM? input = CCCCCC(CCC1C(O)CC2Cc3c(cccc3OCC(=O)O)CC21)OC(=O)NC (stereo not shown)
fulfilled

Quick check: does CCCCCC(CCC1C(O)CC2Cc3c(cccc3OCC(=O)O)CC21)OC(=O)c1ccccc1O (stereo not shown) have Trep Concentration (μM) 15 min under 0.005 µM?
fulfilled

Does the reported Trep Concentration (μM) 15 min of CCCCCC(CCC1C(O)CC2Cc3c(cccc3OCC(=O)O)CC21)OC(=O)C12CC3CC(CC(C3)C1)C2 (stereo not shown) stay below 0.005 µM?
not fulfilled

For this molecule, is Trep Concentration (μM) 15 min lower than 0.005 µM? CCCCCC(CCC1C(O)CC2Cc3c(cccc3OCC(=O)O)CC21)OC(=O)c1ccc(C(F)(F)F)cc1 (stereo not shown)
not fulfilled

Check if Trep Concentration (μM) 15 min falls below 0.005 µM for CCCCCC(CCC1C(O)CC2Cc3c(cccc3OCC(=O)O)CC21)OC(=O)C(N)CCCCN (stereo not shown) .
not fulfilled

Trep Concentration (μM) 15 min under 0.005 µM? Item: CCCCCC(CCC1C(O)CC2Cc3c(cccc3OCC(=O)O)CC21)OC(=O)N1CCC(O)CC1 (stereo not shown)
fulfilled

# TODO verify Trep Concentration (μM) 15 min < 0.005 µM strictly for this molecule: CCCCCC(CCC1C(O)CC2Cc3c(cccc3OCC(=O)O)CC21)OC(=O)c1cccc(O)c1 (stereo not shown)
fulfilled

Check if Trep Concentration (μM) 15 min falls below 0.005 µM for CCCCCC(CCC1C(O)CC2Cc3c(cccc3OCC(=O)O)CC21)OC(=O)CCC(=O)N1CCOCC1 (stereo not shown) .
not fulfilled

Input CCCCCC(CCC1C(O)CC2Cc3c(cccc3OCC(=O)O)CC21)OC(N)=O (stereo not shown) ; condition: Trep Concentration (μM) 15 min strictly below 0.005 µM. Does it hold?
not fulfilled

Please let me know if CCCCCC(CCC1C(O)CC2Cc3c(cccc3OCC(=O)O)CC21)OCCC (stereo not shown) shows Trep Concentration (μM) 15 min below 0.005 µM.
fulfilled

Determine whether this molecule shows Trep Concentration (μM) 15 min lower than 0.005 µM (ties excluded): CCCCCC(CCC1C(O)CC2Cc3c(cccc3OCC(=O)O)CC21)OC(=O)CCN (stereo not shown)
not fulfilled

API: query returns whether the molecule falls strictly under 0.005 µM in Trep Concentration (μM) 15 min. Query: CCCCCC(CCC1C(O)CC2Cc3c(cccc3OCC(=O)O)CC21)OC(=O)COc1ccc(O)cc1 (stereo not shown)
not fulfilled

In the record for CCCCCC(CCC1C(O)CC2Cc3c(cccc3OCC(=O)O)CC21)OC(=O)C(C)C (stereo not shown) , is Trep Concentration (μM) 15 min less than 0.005 µM?
not fulfilled

Recorded values, source patent US12491170B2.
